# experiment-description: Pharmacokinetic analysis in rats (i.v., s.c., p.o.)
# Format: in vivo
# experimental-setup: male, Sprague-Dawley, plasma, iv, 2 mg/kg, rat
# Procedure: • 1. Intravenous (i.v.): 2 mg/kg • 2. Subcutaneous (s.c): 2 mg/kg • 3. Oral (p.o.): 8 mg/kg Whole blood samples were chilled and immediately processed by centrifugation to obtain plasma. Plasma samples were stored frozen (−70° C.) until analysis.

| compound | clearance [mL/min/kg] |
| --- | --- |
| CCC(C)[C@@H]1NCCOc2ccccc2CCCNC(=O)[C@@H](Cc2ccc(Cl)cc2)NC(=O)[C@@H](C)N(C)C1=O (stereo partly shown) | 67 |

----------
Catalogue of Ki values
# measured-on: human growth hormone secretagogue receptor (hGHS-R1a) (Homo sapiens)
# Construct: purchased PerkinElmer BioSignal #RBHGHSM; host or cells: HEK-293, stably transfected
# Sequence (Q92847 whole entry): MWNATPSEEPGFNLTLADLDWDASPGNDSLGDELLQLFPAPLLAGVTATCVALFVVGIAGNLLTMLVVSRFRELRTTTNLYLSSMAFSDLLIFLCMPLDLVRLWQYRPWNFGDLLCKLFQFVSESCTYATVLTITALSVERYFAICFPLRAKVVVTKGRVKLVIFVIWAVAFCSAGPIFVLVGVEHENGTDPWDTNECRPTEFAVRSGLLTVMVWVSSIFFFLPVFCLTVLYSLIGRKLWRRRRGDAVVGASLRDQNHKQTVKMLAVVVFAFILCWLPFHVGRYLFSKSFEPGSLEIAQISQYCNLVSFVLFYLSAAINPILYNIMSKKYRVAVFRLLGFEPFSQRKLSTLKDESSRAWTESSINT
# experiment-description: Competitive radioligand binding assay (ghrelin receptor), [125I]-ghrelin displacement on GHS-R/HEK 293 membranes
# experimental-setup: Binding activity at the human ghrelin receptor, [125I]-ghrelin displacement; read-out: Ki

| compound | Ki |
| --- | --- |
| CCCC[C@@H]1NCCOc2ccccc2CCCNC(=O)[C@H](Cc2ccccc2)NC(=O)C2(CCCC2)NC1=O [compound 101] | 100 to 1000 nM |
| CN1CC(=O)N[C@H](Cc2ccccc2)C(=O)NCCCc2ccccc2OCCN[C@@H](CCC(=O)O)C1=O [compound 73] | > 10000 nM |
| CCC[C@@H]1NCCOc2ccccc2CCCNC(=O)[C@@H](Cc2ccccc2)NC(=O)[C@@H](Cc2ccccc2)NC1=O [compound 65] | 1000 to 10000 nM |
| CCC[C@@H]1NCCOc2ccccc2CCCNC(=O)[C@@H](Cc2ccccc2)NC(=O)[C@@H](CCC(=O)O)NC1=O [compound 71] | > 10000 nM |
| O=C1NC2(CCCC2)C(=O)N[C@@H](Cc2ccccc2)C(=O)NC/C=C/c2ccccc2OCCN[C@H]1Cc1ccc2ccccc2c1 [compound 131] | 100 to 1000 nM |
| CCC[C@@H]1NCCOc2ccccc2CCCNC(=O)[C@@H](Cc2ccccc2)NC(=O)[C@H](CCCCN)NC1=O [compound 68] | 1000 to 10000 nM |
| CC(C)C[C@@H]1NCCOc2ccccc2CCCNC(=O)[C@H](CCCCN)NC(=O)C2(CCCC2)NC1=O [compound 91] | > 10000 nM |
| COc1ccc(C[C@@H]2NCCOc3ccccc3/C=C/CNC(=O)[C@H](Cc3ccccc3)NC(=O)C3(CCCC3)NC2=O)cc1 [compound 127] | 100 to 1000 nM |

----------
# measured-on: human growth hormone secretagogue receptor (hGHS-R1a) (Homo sapiens)
# Construct: purchased PerkinElmer BioSignal #RBHGHSM; host or cells: HEK-293, stably transfected
# experiment-description: Competitive radioligand binding assay (ghrelin receptor), [125I]-ghrelin displacement on GHS-R/HEK 293 membranes
# experimental-setup: Table 3B; binding activity at the human ghrelin receptor; read-out: Ki
pKi: −log10 of the molar value.
Measured pKi values are reported for all entries that follow.

| compound | measured-on | pKi |
| --- | --- | --- |
| CC[C@H](C)[C@@H]1NCCOc2ccc(F)cc2CCCNC(=O)[C@H](Cc2cccc(Cl)c2)NC(=O)C2(CCCC2)NC1=O | human growth hormone secretagogue receptor (hGHS-R1a) (Homo sapiens) | 7.00 to 8.00 |
| COC[C@@H]1NCCOc2ccccc2CCCNC(=O)[C@@H](Cc2ccc(F)cc2)NC(=O)[C@@H](C)N(C)C1=O | human growth hormone secretagogue receptor (hGHS-R1a) (Homo sapiens) | 6.00 to 7.00 |
| CC[C@H](C)[C@@H]1NCCOc2ccccc2C(C)CCNC(=O)[C@H](Cc2cccc(Cl)c2)NC(=O)C2(CCCC2)NC1=O (stereo partly shown) | human growth hormone secretagogue receptor (hGHS-R1a) (Homo sapiens) | 6.00 to 7.00 |
| C[C@@H]1C(=O)N[C@H](Cc2ccc(F)cc2)C(=O)NCCC(C)(C)c2ccccc2OCCN[C@@H](C2CC2)C(=O)N1C | human growth hormone secretagogue receptor (hGHS-R1a) (Homo sapiens) | 6.00 to 7.00 |
| CC[C@H](C)[C@@H]1NCc2ccccc2CCCCCNC(=O)[C@H](Cc2cccc(Cl)c2)NC(=O)C2(CCCC2)NC1=O | human growth hormone secretagogue receptor (hGHS-R1a) (Homo sapiens) | 6.00 to 7.00 |
| CC[C@H](C)[C@@H]1NCCOc2ccccc2C#CCNC(=O)[C@H](Cc2cccc(Cl)c2)NC(=O)C2(CCCC2)NC1=O | human growth hormone secretagogue receptor (hGHS-R1a) (Homo sapiens) | 7.00 to 8.00 |
| CC[C@H](C)[C@@H]1NCCOc2ccccc2CC(C)CNC(=O)[C@H](Cc2cccc(Cl)c2)NC(=O)C2(CCCC2)NC1=O (stereo partly shown) | human growth hormone secretagogue receptor (hGHS-R1a) (Homo sapiens) | 7.00 to 8.00 |
| C[C@@H]1C(=O)N[C@H](Cc2ccc(F)cc2)C(=O)NCCCc2ccccc2OCCN[C@@H](CCN)C(=O)N1C | human growth hormone secretagogue receptor (hGHS-R1a) (Homo sapiens) | 6.00 to 7.00 |
| C[C@@H]1C(=O)N[C@H](Cc2ccc(F)cc2)C(=O)NCCCc2cc(F)ccc2OCCN[C@@H](C2CC2)C(=O)N1C | human growth hormone secretagogue receptor (hGHS-R1a) (Homo sapiens) | 7.00 to 8.00 |
| CC[C@H](C)[C@@H]1NCCOCCOCCNC(=O)[C@H](Cc2cccc(Cl)c2)NC(=O)C2(CCCC2)NC1=O | human growth hormone secretagogue receptor (hGHS-R1a) (Homo sapiens) | 6.00 to 7.00 |
| CC[C@H](C)[C@@H]1NCCOc2cc(F)ccc2CCCNC(=O)[C@H](Cc2cccc(Cl)c2)NC(=O)C2(CCCC2)NC1=O | human growth hormone secretagogue receptor (hGHS-R1a) (Homo sapiens) | 6.00 to 7.00 |
| C[C@@H]1C(=O)N[C@H](Cc2ccc(F)cc2)C(=O)NCCCc2ncccc2OCCN[C@@H](C2CC2)C(=O)N1C [306a] | human growth hormone secretagogue receptor (hGHS-R1a) (Homo sapiens) | 7.00 to 8.00 |
| C[C@@H]1C(=O)N[C@H](Cc2ccc(F)cc2)C(=O)NCCCc2ccccc2OCCN[C@@H](C2CC2)C(=O)N1C | human growth hormone secretagogue receptor (hGHS-R1a) (Homo sapiens) | 8.00 to 10.00 |
